# Tested on: NCI-H196 complex spheroid growth, percent test/control
# ASSAY INFO: Anticancer human tumor NCI-H196 cell line growth inhibition [AhR]
# CONDITION PARAMETERS: second compound 3.16 µM; first compound 0.1 µM; stronger effect = lower value
PROPERTY: viability, T/C (%)
Just the number in %, nothing appended.

INPUT: Identify viability, T/C associated with the compound CC[C@@]1(O)C(=O)OCc2c1cc1n(c2=O)Cc2cc3c(CN(C)C)c(O)ccc3nc2-1 + Cc1cncc(-c2nc(NCCc3c[nH]c4ccccc34)c3ncn(C(C)C)c3n2)c1
OUTPUT: 95.2

INPUT: Identify viability, T/C associated with the compound COc1cc(Nc2ncc3c(n2)-c2ccc(Cl)cc2C(c2c(F)cccc2OC)=NC3)ccc1C(=O)O + Cc1ccccc1N=Nc1ccc(NC(=O)c2ccnn2C)c(C)c1
OUTPUT: 86

INPUT: Identify viability, T/C associated with the compound CC1(C)CCC(CN2CCN(c3ccc(C(=O)NS(=O)(=O)c4ccc(NCC5CCOCC5)c([N+](=O)[O-])c4)c(Oc4cnc5[nH]ccc5c4)c3)CC2)=C(c2ccc(Cl)cc2)C1 + Cc1cncc(-c2nc(NCCc3c[nH]c4ccccc34)c3ncn(C(C)C)c3n2)c1
OUTPUT: 105

----------
Hi there, I'd appreciate the recorded viability, T/C for every entry that follows.
# Test system: NCI-H196 complex spheroid growth, percent test/control
# ASSAY INFO: Anticancer human tumor NCI-H196 cell line growth inhibition [AhR];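 further: seven days of drug exposure starting three days after plating; 100% = DMSO vehicle control wells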
# CONDITION PARAMETERS: second compound 0.316 µM; first compound 3.16 µM; stronger effect = lower value
Just the number in %, nothing appended.

INPUT: Identify viability, T/C associated with the compound CC(C)c1c(-c2ccccc2)nc2c(C#N)c[nH]n2c1=O + Cc1ccccc1N=Nc1ccc(NC(=O)c2ccnn2C)c(C)c1
OUTPUT: 103

INPUT: Identify viability, T/C associated with the compound O=C(c1cc(Cc2n[nH]c(=O)c3ccccc23)ccc1F)N1CCN(C(=O)C2CC2)CC1 + Cc1cncc(-c2nc(NCCc3c[nH]c4ccccc34)c3ncn(C(C)C)c3n2)c1
OUTPUT: 107

INPUT: Identify viability, T/C associated with the compound O=C(C=Cc1cccc(S(=O)(=O)Nc2ccccc2)c1)NO + Cc1ccccc1N=Nc1ccc(NC(=O)c2ccnn2C)c(C)c1
OUTPUT: 27.4

INPUT: Identify viability, T/C associated with the compound Nc1ccn(C2OC(CO)C(O)C2(F)F)c(=O)n1 (configuration not stated) + Cc1cncc(-c2nc(NCCc3c[nH]c4ccccc34)c3ncn(C(C)C)c3n2)c1
OUTPUT: 51.3

INPUT: Identify viability, T/C associated with the compound COc1ccc([C@@H](O)c2cc(-c3ncnc4cc(N5CCOCC5)ccc34)c(F)cc2Cl)nn1 + Cc1ccccc1N=Nc1ccc(NC(=O)c2ccnn2C)c(C)c1
OUTPUT: 68.9

INPUT: Identify viability, T/C associated with the compound CC1COCCN1c1cc(C2(S(C)(=N)=O)CC2)nc(-c2ccnc3[nH]ccc23)n1 (configuration not stated) + Cc1ccccc1N=Nc1ccc(NC(=O)c2ccnn2C)c(C)c1
OUTPUT: 80.5

INPUT: Identify viability, T/C associated with the compound NS(=O)(=O)OCC1CC(n2ccc3c(NC4CCc5ccccc54)ncnc32)CC1O (configuration not stated) + Cc1ccccc1N=Nc1ccc(NC(=O)c2ccnn2C)c(C)c1
OUTPUT: 74.6

INPUT: Identify viability, T/C associated with the compound CC1(C)CCC(CN2CCN(c3ccc(C(=O)NS(=O)(=O)c4ccc(NCC5CCOCC5)c([N+](=O)[O-])c4)c(Oc4cnc5[nH]ccc5c4)c3)CC2)=C(c2ccc(Cl)cc2)C1 + Cc1ccccc1N=Nc1ccc(NC(=O)c2ccnn2C)c(C)c1
OUTPUT: 108

INPUT: Identify viability, T/C associated with the compound CC1(C)CCC(CN2CCN(c3ccc(C(=O)NS(=O)(=O)c4ccc(NCC5CCOCC5)c([N+](=O)[O-])c4)c(Oc4cnc5[nH]ccc5c4)c3)CC2)=C(c2ccc(Cl)cc2)C1 + CC(CO)NC(=O)c1cc(-c2ccc(Cl)cc2)nn(-c2cnn(C)c2)c1=O
OUTPUT: 103

INPUT: Identify viability, T/C associated with the compound NS(=O)(=O)OCC1CC(n2ccc3c(NC4CCc5ccccc54)ncnc32)CC1O (configuration not stated) + CC(CO)NC(=O)c1cc(-c2ccc(Cl)cc2)nn(-c2cnn(C)c2)c1=O
OUTPUT: 52.5

INPUT: Identify viability, T/C associated with the compound CC(C)c1c(-c2ccccc2)nc2c(C#N)c[nH]n2c1=O + CC(CO)NC(=O)c1cc(-c2ccc(Cl)cc2)nn(-c2cnn(C)c2)c1=O
OUTPUT: 108

INPUT: Identify viability, T/C associated with the compound COc1cc(Nc2ncc3c(n2)-c2ccc(Cl)cc2C(c2c(F)cccc2OC)=NC3)ccc1C(=O)O + Cc1ccccc1N=Nc1ccc(NC(=O)c2ccnn2C)c(C)c1
OUTPUT: 119

----------
# Tested on: NCI-H196 complex spheroid growth, percent test/control
# ASSAY INFO: Anticancer human tumor NCI-H196 cell line growth inhibition [AhR];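 further: seven days of drug exposure starting three days after plating; 100% = DMSO vehicle control wells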
# CONDITION PARAMETERS: second compound 10 µM; first compound 1 µM; stronger effect = lower value
# Source text: Multicellular complex tumor spheroid response to aryl hydrocarbon receptor antagonists in combination with a variety of drugs and investigational agents in selected tumor cell lines […] Compounds. […] If the clinical Cmax for an agent had not been determined, the highest concentration tested was 10 microM (Table 1). […]
PROPERTY: viability, T/C (%)
Just the number in %, nothing appended.

INPUT: Identify viability, T/C associated with the compound NS(=O)(=O)OCC1CC(n2ccc3c(NC4CCc5ccccc54)ncnc32)CC1O (stereo not given) + Cc1cncc(-c2nc(NCCc3c[nH]c4ccccc34)c3ncn(C(C)C)c3n2)c1
OUTPUT: 79.6

INPUT: Identify viability, T/C associated with the compound CC(C)c1c(-c2ccccc2)nc2c(C#N)c[nH]n2c1=O + CC(CO)NC(=O)c1cc(-c2ccc(Cl)cc2)nn(-c2cnn(C)c2)c1=O
OUTPUT: 119

INPUT: Identify viability, T/C associated with the compound CC1(C)CCC(CN2CCN(c3ccc(C(=O)NS(=O)(=O)c4ccc(NCC5CCOCC5)c([N+](=O)[O-])c4)c(Oc4cnc5[nH]ccc5c4)c3)CC2)=C(c2ccc(Cl)cc2)C1 + CC(CO)NC(=O)c1cc(-c2ccc(Cl)cc2)nn(-c2cnn(C)c2)c1=O
OUTPUT: 115

INPUT: Identify viability, T/C associated with the compound COc1ccc([C@@H](O)c2cc(-c3ncnc4cc(N5CCOCC5)ccc34)c(F)cc2Cl)nn1 + Cc1ccccc1N=Nc1ccc(NC(=O)c2ccnn2C)c(C)c1
OUTPUT: 73.1

INPUT: Identify viability, T/C associated with the compound COc1ccc([C@@H](O)c2cc(-c3ncnc4cc(N5CCOCC5)ccc34)c(F)cc2Cl)nn1 + Cc1cncc(-c2nc(NCCc3c[nH]c4ccccc34)c3ncn(C(C)C)c3n2)c1
OUTPUT: 77.7

----------
Hi there, I'd appreciate the recorded viability, T/C for every entry that follows.
# Tested on: NCI-H196 complex spheroid growth, percent test/control
# ASSAY INFO: Anticancer human tumor NCI-H196 cell line growth inhibition [AhR];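 further: seven days of drug exposure starting three days after plating; 100% = DMSO vehicle control wells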
# CONDITION PARAMETERS: second compound 0.1 µM; first compound 0.000316 µM; stronger effect = lower value
Just the number in %, nothing appended.

INPUT: Identify viability, T/C associated with the compound CC[C@@]1(O)C(=O)OCc2c1cc1n(c2=O)Cc2cc3c(CN(C)C)c(O)ccc3nc2-1 + Cc1ccccc1N=Nc1ccc(NC(=O)c2ccnn2C)c(C)c1
OUTPUT: 92.3

INPUT: Identify viability, T/C associated with the compound Cn1ncnc1C1c2n[nH]c(=O)c3cc(F)cc(c23)NC1c1ccc(F)cc1 (stereo not drawn) + Cc1ccccc1N=Nc1ccc(NC(=O)c2ccnn2C)c(C)c1
OUTPUT: 96.3

INPUT: Identify viability, T/C associated with the compound Cn1ncnc1C1c2n[nH]c(=O)c3cc(F)cc(c23)NC1c1ccc(F)cc1 (stereo not drawn) + Cc1cncc(-c2nc(NCCc3c[nH]c4ccccc34)c3ncn(C(C)C)c3n2)c1
OUTPUT: 110

----------
# Test system: NCI-H196 complex spheroid growth, percent test/control
# ASSAY INFO: Anticancer human tumor NCI-H196 cell line growth inhibition [AhR];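 further: seven days of drug exposure starting three days after plating; 100% = DMSO vehicle control wells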
# CONDITION PARAMETERS: second compound 3.16 µM; first compound 0.03 µM; stronger effect = lower value
With a cut-off of 90%, any viability, T/C strictly below it is called Condition met; any viability, T/C meeting it or above is called Condition not met.

INPUT: Is the reported viability, T/C for CC(C)CC(NC(=O)C(Cc1ccccc1)NC(=O)c1cnccn1)B(O)O (configuration not stated) + CC(CO)NC(=O)c1cc(-c2ccc(Cl)cc2)nn(-c2cnn(C)c2)c1=O strictly below 90%?
OUTPUT: Condition met

INPUT: Is the reported viability, T/C for CC(C)CC(NC(=O)C(Cc1ccccc1)NC(=O)c1cnccn1)B(O)O (configuration not stated) + Cc1cncc(-c2nc(NCCc3c[nH]c4ccccc34)c3ncn(C(C)C)c3n2)c1 strictly below 90%?
OUTPUT: Condition met

INPUT: Is the reported viability, T/C for Nc1ncn(C2CC(O)C(CO)S2)c(=O)n1 (configuration not stated) + CC(CO)NC(=O)c1cc(-c2ccc(Cl)cc2)nn(-c2cnn(C)c2)c1=O strictly below 90%?
OUTPUT: Condition not met

INPUT: Is the reported viability, T/C for O=C(C=Cn1cnc(-c2cc(C(F)(F)F)cc(C(F)(F)F)c2)n1)NNc1cnccn1 + Cc1ccccc1N=Nc1ccc(NC(=O)c2ccnn2C)c(C)c1 strictly below 90%?
OUTPUT: Condition met

INPUT: Is the reported viability, T/C for CCN(c1cc(-c2ccc(CN3CCOCC3)cc2)cc(C(=O)NCc2c(C)cc(C)[nH]c2=O)c1C)C1CCOCC1 + CC(CO)NC(=O)c1cc(-c2ccc(Cl)cc2)nn(-c2cnn(C)c2)c1=O strictly below 90%?
OUTPUT: Condition not met

INPUT: Is the reported viability, T/C for Nc1ncn(C2CC(O)C(CO)S2)c(=O)n1 (configuration not stated) + Cc1cncc(-c2nc(NCCc3c[nH]c4ccccc34)c3ncn(C(C)C)c3n2)c1 strictly below 90%?
OUTPUT: Condition not met

INPUT: Is the reported viability, T/C for Nc1ncn(C2CC(O)C(CO)S2)c(=O)n1 (configuration not stated) + Cc1ccccc1N=Nc1ccc(NC(=O)c2ccnn2C)c(C)c1 strictly below 90%?
OUTPUT: Condition not met

INPUT: Is the reported viability, T/C for CCc1c2c(nc3ccc(O)cc13)-c1cc3c(c(=O)n1C2)COC(=O)[C@]3(O)CC + CC(CO)NC(=O)c1cc(-c2ccc(Cl)cc2)nn(-c2cnn(C)c2)c1=O strictly below 90%?
OUTPUT: Condition not met

INPUT: Is the reported viability, T/C for CCN(c1cc(-c2ccc(CN3CCOCC3)cc2)cc(C(=O)NCc2c(C)cc(C)[nH]c2=O)c1C)C1CCOCC1 + Cc1cncc(-c2nc(NCCc3c[nH]c4ccccc34)c3ncn(C(C)C)c3n2)c1 strictly below 90%?
OUTPUT: Condition not met

INPUT: Is the reported viability, T/C for CC(C)CC(NC(=O)C(Cc1ccccc1)NC(=O)c1cnccn1)B(O)O (configuration not stated) + Cc1ccccc1N=Nc1ccc(NC(=O)c2ccnn2C)c(C)c1 strictly below 90%?
OUTPUT: Condition met

INPUT: Is the reported viability, T/C for CCc1c2c(nc3ccc(O)cc13)-c1cc3c(c(=O)n1C2)COC(=O)[C@]3(O)CC + Cc1cncc(-c2nc(NCCc3c[nH]c4ccccc34)c3ncn(C(C)C)c3n2)c1 strictly below 90%?
OUTPUT: Condition met
